system: K24384-001-R-PDC complex spheroid viability; experiment: Anticancer human tumor K24384-001-R-PDC patient-derived pancreatic adenocarcinoma cell line growth inhibition; details: second compound 1 µM; first compound 0.0949 µM; active compounds read low;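 further: spheroids exposed to agents for seven days before luminescence viability reading; 100% = DMSO vehicle control viability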
readout: viability, T/C (%)

{"molecule": "NS(=O)(=O)OCC1CC(n2ccc3c(NC4CCc5ccccc54)ncnc32)CC1O (stereo unspecified) + NC1CC1c1ccc(-c2cccc(O)c2)cc1", "unit abbreviation": "%", "reported result": 146}
{"molecule": "Nc1ccn(C2OC(CO)C(O)C2(F)F)c(=O)n1 (stereo unspecified) + NC1CCC(NC2CC2c2ccccc2)CC1", "unit abbreviation": "%", "reported result": 48}
{"molecule": "COc1cc(C2c3cc4c(cc3C(OC3OC5COC(C)OC5C(O)C3O)C3COC(=O)C23)OCO4)cc(OC)c1O (stereo unspecified) + NC1CCC(NC2CC2c2ccccc2)CC1", "unit abbreviation": "%", "reported result": 69.3}
{"molecule": "CCc1c2c(nc3ccc(O)cc13)-c1cc3c(c(=O)n1C2)COC(=O)[C@]3(O)CC + NC1CC1c1ccc(-c2cccc(O)c2)cc1", "unit abbreviation": "%", "reported result": 4.74}
{"molecule": "Nc1ccccc1NC(=O)c1ccc(CNC(=O)OCc2cccnc2)cc1 + NC1CCC(NC2CC2c2ccccc2)CC1", "unit abbreviation": "%", "reported result": 92}
{"molecule": "CCN(c1cc(-c2ccc(CN3CCOCC3)cc2)cc(C(=O)NCc2c(C)cc(C)[nH]c2=O)c1C)C1CCOCC1 + NC1CC1c1ccc(-c2cccc(O)c2)cc1", "unit abbreviation": "%", "reported result": 107}
{"molecule": "Nc1ncn(C2CC(O)C(CO)S2)c(=O)n1 (stereo unspecified) + NC1CCC(NC2CC2c2ccccc2)CC1", "unit abbreviation": "%", "reported result": 73.5}
{"molecule": "O=C(C=Cc1cccc(S(=O)(=O)Nc2ccccc2)c1)NO + NC1CC1c1ccc(-c2cccc(O)c2)cc1", "unit abbreviation": "%", "reported result": 98.1}
{"molecule": "O=C(C=Cc1cccc(S(=O)(=O)Nc2ccccc2)c1)NO + NC1CCC(NC2CC2c2ccccc2)CC1", "unit abbreviation": "%", "reported result": 95.8}
{"molecule": "CCc1c2c(nc3ccc(O)cc13)-c1cc3c(c(=O)n1C2)COC(=O)[C@]3(O)CC + NC1CCC(NC2CC2c2ccccc2)CC1", "unit abbreviation": "%", "reported result": 5.26}
{"molecule": "Nc1ccn(C2OC(CO)C(O)C2(F)F)c(=O)n1 (stereo unspecified) + NC1CC1c1ccc(-c2cccc(O)c2)cc1", "unit abbreviation": "%", "reported result": 41.1}
{"molecule": "NS(=O)(=O)OCC1CC(n2ccc3c(NC4CCc5ccccc54)ncnc32)CC1O (stereo unspecified) + NC1CCC(NC2CC2c2ccccc2)CC1", "unit abbreviation": "%", "reported result": 124}
{"molecule": "Nc1ccccc1NC(=O)c1ccc(CNC(=O)OCc2cccnc2)cc1 + NC1CC1c1ccc(-c2cccc(O)c2)cc1", "unit abbreviation": "%", "reported result": 115}
{"molecule": "Nc1ncn(C2CC(O)C(CO)S2)c(=O)n1 (stereo unspecified) + NC1CC1c1ccc(-c2cccc(O)c2)cc1", "unit abbreviation": "%", "reported result": 73.1}
{"molecule": "COc1cc(C2c3cc4c(cc3C(OC3OC5COC(C)OC5C(O)C3O)C3COC(=O)C23)OCO4)cc(OC)c1O (stereo unspecified) + NC1CC1c1ccc(-c2cccc(O)c2)cc1", "unit abbreviation": "%", "reported result": 60.5}
{"molecule": "CCN(c1cc(-c2ccc(CN3CCOCC3)cc2)cc(C(=O)NCc2c(C)cc(C)[nH]c2=O)c1C)C1CCOCC1 + NC1CCC(NC2CC2c2ccccc2)CC1", "unit abbreviation": "%", "reported result": 103}
